Biological target: C5AR1 (Homo sapiens (Human))
Sequence (P21730 whole entry): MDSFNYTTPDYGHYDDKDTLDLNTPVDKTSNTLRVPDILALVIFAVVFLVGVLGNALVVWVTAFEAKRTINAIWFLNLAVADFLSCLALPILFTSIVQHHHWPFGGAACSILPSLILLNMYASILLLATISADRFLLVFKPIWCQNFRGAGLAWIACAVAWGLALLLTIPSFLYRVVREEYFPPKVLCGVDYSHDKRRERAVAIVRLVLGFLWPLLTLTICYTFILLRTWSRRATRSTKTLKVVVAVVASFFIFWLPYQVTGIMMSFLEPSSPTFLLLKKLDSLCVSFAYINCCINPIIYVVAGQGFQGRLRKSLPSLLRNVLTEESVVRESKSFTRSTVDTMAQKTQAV
Assay: In vitro assay: PathHunter beta-arrestin antagonist assay in CHO-K1 C5AR1 beta-arrestin cell line, stimulated with C5a agonist
Conditions: read-out: C5aR IC50; CHO-K1 C5AR1 beta-arrestin cell line; 1-10 nM C5a agonist; geometric mean values
Could you mark each record rule met if its IC50 falls strictly under 100 nM, and rule not met if it equals or exceeds it?

[[record]]
compound = "COc1ccccc1N1CCC(N2Cc3ccccc3N(Cc3ccccc3C(F)(F)F)C2=O)CC1 [Example 6]"
label_class = "rule not met"

[[record]]
compound = "Cc1cccc(Cl)c1N1CCC(N2Cc3ccccc3N(Cc3ccccc3C(F)(F)F)C2=O)CC1 [Example 79]"
label_class = "rule met"

[[record]]
compound = "Cc1nc(C(F)(F)F)c(CN2C(=O)N(C3CCN(c4c(C)cccc4F)CC3)Cc3ccccc32)s1 [Example 83]"
label_class = "rule not met"

[[record]]
compound = "Cc1cccc(F)c1N1CCC(N2Cc3ccccc3N(Cc3nccnc3OC(C)C)C2=O)CC1 [Example 59]"
label_class = "rule met"

[[record]]
compound = "O=C1N(Cc2ccccc2C(F)(F)F)c2ccccc2CN1[C@H]1CCN(c2c(F)cccc2F)C1 [Example 15]"
label_class = "rule not met"

[[record]]
compound = "COc1nccc(C)c1N1CCC(N2Cc3ccccc3N(Cc3ccccc3C(F)(F)F)C2=O)CC1 [Example 29]"
label_class = "rule met"

[[record]]
compound = "Cc1cccc(F)c1N1CCC(N2Cc3ccnnc3N(Cc3ccccc3C(F)(F)F)C2=O)CC1 [Example 41]"
label_class = "rule not met"

[[record]]
compound = "Cc1cccc(F)c1N1CCC(N2Cc3ccccc3N(Cc3ccccc3OC(F)(F)F)C2=O)CC1 [Example 74]"
label_class = "rule met"

[[record]]
compound = "COc1cccc2c1N(Cc1ccccc1C(F)(F)F)C(=O)N([C@@H]1CCN(c3c(F)cccc3F)C1)C2 [Example 8]"
label_class = "rule not met"

[[record]]
compound = "Cc1ccnc(F)c1N1CCC(N2Cc3ccccc3N(Cc3ccccc3C(F)(F)F)C2=O)CC1 [Example 30]"
label_class = "rule met"

[[record]]
compound = "Cc1cccc(F)c1N1CCC(N2Cc3ccccc3N(Cc3ccccc3OC3CC3)C2=O)CC1 [Example 68]"
label_class = "rule met"

[[record]]
compound = "Cc1cccc(F)c1N1CCC(N2Cc3ccccc3N(Cc3ccccc3OC(C)C)C2=O)CC1 [Example 44]"
label_class = "rule met"

[[record]]
compound = "COc1cccc(F)c1N1CCC(N2Cc3cccc(OC)c3N(Cc3ccccc3C(F)(F)F)C2=O)CC1 [Example 5]"
label_class = "rule not met"

[[record]]
compound = "Cc1cccc(F)c1N1CCC(N2Cc3ccccc3N(Cc3ncccc3OC(C)C)C2=O)CC1 [Example 60]"
label_class = "rule met"

[[record]]
compound = "Cc1cccc(F)c1N1CCC(N2Cc3nnccc3N(Cc3ccccc3C(F)(F)F)C2=O)CC1 [Example 66]"
label_class = "rule not met"

[[record]]
compound = "Cc1cccc(F)c1N1CCC(N2Cc3ccccc3N(Cc3nccnc3C(F)(F)F)C2=O)CC1 [Example 42]"
label_class = "rule met"

